Tested on: SNU-5 cells
Assay: MET cell proliferation assay, SNU-5 (CellTiter-Glo)
Assay type: cell-based
Conditions: Homo sapiens, 72 hours treatment
pIC50: −log10 of the molar value.
Label f if pIC50 falls below 8; label t in every other case.

query: Is the recorded value of pIC50 equal to or greater than 8 for this molecule? CCN1Cc2c(C#N)cccc2OCCNC(=O)c2cnn3ccc1nc23 [Compound 3]
result: f

query: pIC50 >= 8 for C[C@H]1CNC(=O)c2c(N)nn3ccc(nc23)N(CC2CC2)Cc2c(ccc(F)c2C#N)O1 [Compound 7] ?
result: t

Next:
query: I'd appreciate it if you could say whether CCN1Cc2c(ccc(F)c2C#N)O[C@@H](C)CNC(=O)c2cnn3ccc1nc23 [Compound 4] has pIC50 at least equal to 8.
result: t

query: Could you tell me if the measured pIC50 of CCN1Cc2c(ccc(F)c2Cl)O[C@@H](C)CNC(=O)c2c(N)nn3ccc1nc23 [Compound 1] reaches 8 or more?
result: f

query: Decide: is the reported value of pIC50 for CC(C)N1Cc2c(ccc(F)c2C#N)O[C@@H](C)CNC(=O)c2c(N)nn3ccc1nc23 [Compound 8] equal to or greater than 8?
result: t

query: Would you say CCN1Cc2c(C#N)cccc2O[C@@H](C)CNC(=O)c2c(N)nn3ccc1nc23 [Compound 6] shows pIC50 at minimum 8?
result: f

query: Answer whether pIC50 of CCN1Cc2c(C#N)cccc2O[C@@H](C)CNC(=O)c2cnn3ccc1nc23 [Compound 2] is greater than or equal to 8.
result: f
